Target protein (sequence): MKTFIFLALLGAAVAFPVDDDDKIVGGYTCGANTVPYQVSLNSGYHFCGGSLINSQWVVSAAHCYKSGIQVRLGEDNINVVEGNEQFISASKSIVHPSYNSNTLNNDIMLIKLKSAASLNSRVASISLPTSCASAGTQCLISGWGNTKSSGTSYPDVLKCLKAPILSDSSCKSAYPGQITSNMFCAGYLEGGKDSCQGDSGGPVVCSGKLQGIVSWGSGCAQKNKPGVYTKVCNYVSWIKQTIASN
REPORTED_METRIC: Ki (µM)
Number in µM, nothing else.

Query: May I ask what Ki has been recorded for O=C(NC1Cc2ccccc2C1)c1ccc(Cc2nc(C(=O)[C@H](CCC3CCNCC3)NC(=O)c3ccc(F)c(F)c3)no2)cc1 ?
Response: 74.5

Query: May I ask what Ki has been recorded for O=C(N[C@@H](Cc1cc2ccncc2[nH]1)C(=O)c1nc2ccccc2s1)OCc1ccccc1 ?
Response: 13

Query: May I ask what Ki has been recorded for O=C(NC1Cc2ccccc2C1)c1ccc(Cc2nc(C(=O)[C@H](CCC3CCNC3)NC(=O)c3ccc(F)c(F)c3)no2)cc1 (stereo partly specified) ?
Response: 7.4

Query: May I ask what Ki has been recorded for Cc1cc2nc(N)[nH]c2cc1C [5,6-dimethyl-1H-1,3-benzodiazol-2-amine] ?
Response: 1000
